Tested on: IL-6 secretion in LPS-treated THP-1 cells
Protocol Description: Cell-based IL-6 quantification assay (ELISA, Mesoscale)
Measurement Context: Homo sapiens, LPS 4 μg/mL, 16 h, normalised to CellTiter-Glo
Measured Attribute: IC50

The compound CCNC(=O)Nc1cc(N(C)[C@@H](C)c2ccccc2)nn2c(C)nnc12 on IL-6 secretion in LPS-treated THP-1 cells: IC50 was < 0.5 µM

The compound CCOC(=O)Nc1cc(N(C)[C@@H](C)c2ccccc2)nn2c(C)nnc12 on IL-6 secretion in LPS-treated THP-1 cells: IC50 was < 0.5 µM

The compound Cc1nnc2c(N)cc(N(C)[C@@H](C)c3ccccc3)nn12 on IL-6 secretion in LPS-treated THP-1 cells: IC50 was < 0.5 µM

The compound CCNC(=O)Nc1cc(N(C)[C@@H](C)c2ccc(Cl)cc2)nn2c(C)nnc12 on IL-6 secretion in LPS-treated THP-1 cells: IC50 was < 0.5 µM

The compound CCNC(=O)Nc1cc(N(C)[C@@H](C)c2ccc(F)cc2)nn2c(C)nnc12 on IL-6 secretion in LPS-treated THP-1 cells: IC50 was < 0.5 µM

The compound Cc1nnc2ccc(N(C)C(C)c3ccccc3)nn12 (stereo not drawn) on IL-6 secretion in LPS-treated THP-1 cells: IC50 was > 1 µM

The compound Cc1nnc2ccc(N(C)[C@@H](C)c3ccccc3)nn12 on IL-6 secretion in LPS-treated THP-1 cells: IC50 was > 1 µM

The compound Cc1nnc2c(NC(=O)N(C)C)cc(N(C)[C@@H](C)c3ccccc3)nn12 on IL-6 secretion in LPS-treated THP-1 cells: IC50 was 0.5 to 1 µM

The compound CCNC(=O)Nc1cc(N(C)[C@@H](C)c2ccccc2)nn2c(C(F)(F)F)nnc12 on IL-6 secretion in LPS-treated THP-1 cells: IC50 was < 0.5 µM

The compound Cc1nnc2c(C(N)=O)cc(N(C)[C@@H](C)c3ccccc3)nn12 on IL-6 secretion in LPS-treated THP-1 cells: IC50 was > 1 µM

The compound Cc1nnc2ccc(NC(C)c3ccccc3)nn12 (racemic) on IL-6 secretion in LPS-treated THP-1 cells: IC50 was > 1 µM

The compound C[C@@H](c1ccccc1)N(C)c1ccc2nnc(C#N)n2n1 on IL-6 secretion in LPS-treated THP-1 cells: IC50 was > 1 µM

* * *

Assayed System: BRD4(BD1) (Homo sapiens, UniProt O60885)
Construct: His; made in house
Protocol Description: BRD4 AlphaLisa binding assay
Measurement Context: BRD4(BD1) 30 nM, biotinylated H4-tetraacetyl peptide 200 nM
Method: A. IC50 Measurements for Inhibitors Using BRD4 AlphaLisa Binding Assay His/Flag epitope tagged BRD4 BD142-168 was cloned, expressed and purified to homogeneity. BRD4 binding and inhibition was assessed by monitoring the engagement of biotinylated H4-tetraacetyl peptide (Millipore #12-379) with the target using the AlphaLisa technology (Perkin-Elmer). […] After three hours equilibration plates were read on an Envision instrument and IC50s calculated using a four parameter non-linear curve fit.
pIC50: −log10 of the molar value.
Measured Attribute: pIC50

Briefly, pIC50 measured for Cc1nnc2c(C(N)=O)cc(N(C)[C@@H](C)c3ccccc3)nn12 [Compound 7] : < 6.00

Briefly, pIC50 measured for CCNC(=O)Nc1cc(N(C)[C@@H](C)c2ccccc2)nn2c(C(F)(F)F)nnc12 [Compound 14] : > 6.30

Briefly, pIC50 measured for Cc1nnc2ccc(N3CCCC3c3ccccc3)nn12 (centres unmarked) [Compound 10] : < 6.00

Briefly, pIC50 measured for Cc1nnc2c(N)cc(N(C)[C@@H](C)c3ccccc3)nn12 [Compound 6] : > 6.30

Briefly, pIC50 measured for Cc1nnc2ccc(N(C)C(C)c3ccccc3)nn12 (centres unmarked) [Compound 2] : 6.00 to 6.30

Briefly, pIC50 measured for Cc1nnc2ccc(N(C)[C@H](C)c3ccccc3)nn12 [Compound 4] : < 6.00

Briefly, pIC50 measured for Cc1nnc2ccc(N(C)[C@@H](C)c3ccccc3)nn12 [Compound 3] : > 6.30

Briefly, pIC50 measured for CCOC(=O)Nc1cc(N(C)[C@@H](C)c2ccccc2)nn2c(C)nnc12 [Compound 11] : > 6.30

Briefly, pIC50 measured for C[C@@H](c1ccccc1)N(C)c1ccc2nnc(C#N)n2n1 [Compound 9] : < 6.00

Briefly, pIC50 measured for Cc1nnc2ccc(NC(C)c3ccccc3)nn12 (racemic) [Compound 1] : < 6.00

Briefly, pIC50 measured for Cc1nnc2c(NC(=O)N(C)C)cc(N(C)[C@@H](C)c3ccccc3)nn12 [Compound 8] : > 6.30

Briefly, pIC50 measured for CCNC(=O)Nc1cc(N(C)[C@@H](C)c2ccccc2)nn2c(C)nnc12 [Compound 5] : > 6.30

Briefly, pIC50 measured for CCNC(=O)Nc1cc(N(C)[C@@H](C)c2ccc(F)cc2)nn2c(C)nnc12 [Compound 12] : > 6.30

Briefly, pIC50 measured for CCNC(=O)Nc1cc(N(C)[C@@H](C)c2ccc(Cl)cc2)nn2c(C)nnc12 [Compound 13] : > 6.30
